# target: T1, human ADAMTS13 (human, UniProt Q76LX8 75-1427)
# T1 construct: ELISA: full-length recombinant ADAMTS13 coated on plates (Technoclone); Activity assays: endogenous ADAMTS13 of normal human plasma; also called full-length human recombinant ADAMTS13; VWF-cleaving protease
# T1 sequence (looked up): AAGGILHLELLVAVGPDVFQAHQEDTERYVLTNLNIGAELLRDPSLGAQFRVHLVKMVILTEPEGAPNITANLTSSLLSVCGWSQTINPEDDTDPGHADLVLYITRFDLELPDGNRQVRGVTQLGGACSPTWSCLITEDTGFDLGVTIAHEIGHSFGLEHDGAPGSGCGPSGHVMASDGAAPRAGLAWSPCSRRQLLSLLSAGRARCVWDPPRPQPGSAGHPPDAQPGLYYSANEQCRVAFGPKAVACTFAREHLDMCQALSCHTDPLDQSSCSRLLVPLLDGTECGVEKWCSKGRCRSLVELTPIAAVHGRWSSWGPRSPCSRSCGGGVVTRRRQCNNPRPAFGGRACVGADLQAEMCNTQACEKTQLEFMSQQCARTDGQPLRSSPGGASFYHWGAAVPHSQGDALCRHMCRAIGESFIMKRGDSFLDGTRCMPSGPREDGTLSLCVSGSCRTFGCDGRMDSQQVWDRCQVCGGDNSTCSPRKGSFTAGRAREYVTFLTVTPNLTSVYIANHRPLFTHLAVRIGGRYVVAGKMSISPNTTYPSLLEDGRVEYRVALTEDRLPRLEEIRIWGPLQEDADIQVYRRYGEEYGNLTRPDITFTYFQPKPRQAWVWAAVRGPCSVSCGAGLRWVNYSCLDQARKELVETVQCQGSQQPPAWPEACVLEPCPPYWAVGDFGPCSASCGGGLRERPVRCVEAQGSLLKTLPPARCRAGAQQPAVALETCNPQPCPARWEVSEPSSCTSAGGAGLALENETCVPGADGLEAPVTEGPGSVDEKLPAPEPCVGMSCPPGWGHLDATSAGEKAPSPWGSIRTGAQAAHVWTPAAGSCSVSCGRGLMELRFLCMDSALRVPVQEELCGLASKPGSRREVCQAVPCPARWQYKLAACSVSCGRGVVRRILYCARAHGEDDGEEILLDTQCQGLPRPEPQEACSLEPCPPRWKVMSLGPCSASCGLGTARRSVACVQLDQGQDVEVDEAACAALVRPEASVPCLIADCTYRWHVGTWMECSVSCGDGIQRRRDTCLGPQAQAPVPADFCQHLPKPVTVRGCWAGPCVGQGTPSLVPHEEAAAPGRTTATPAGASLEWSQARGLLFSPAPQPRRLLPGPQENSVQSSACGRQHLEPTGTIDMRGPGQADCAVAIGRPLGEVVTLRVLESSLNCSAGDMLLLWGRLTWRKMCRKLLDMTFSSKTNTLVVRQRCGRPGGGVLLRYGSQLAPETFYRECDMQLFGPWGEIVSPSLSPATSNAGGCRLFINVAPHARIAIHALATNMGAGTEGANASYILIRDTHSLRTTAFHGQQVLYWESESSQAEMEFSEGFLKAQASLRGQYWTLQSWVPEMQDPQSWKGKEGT
# assay: phage ELISA on ADAMTS13-coated plates (positive: >10-fold absorbance above background)

binder: scFv 1-450 (scFv, V domains shown) VH: QVQLVQSGAEVKKPGSSMNVSCKASGGTFSRHTINWVRQAPGQGLEWMGSIIPILGITNYAQNFQGRLTFSADKSTNTAYVELSGLRSEDTAVYYCASGDYYYDMAVWGQGTTVAVTS VL: ELVLTQPPSVSVSPGQTARITCSGDALPKQYAYWYQQKPGQAPVLVIYKDSERPSGIPERFSGSSSGTTATLTISGVQAEDEADYYCQSAYSSGTVVFGGGTELTVL
binding result: binds
--
binder: scFv 3-405 (scFv, V domains shown) VH: QVQLVQSGAEVKRPGSSVKVSCKASGNTFSNYHINWVRQAPGQGLQWMGGIIPILGRTNYAQNFQGRVTITTDESTNTAYMELTSLRSEDTAVYYCAREARDSFDFWGQGTMVTVSS VL: ELVLTQPPSVSVAPGKTARITCGENNIGSKSVHWYQQKPGQAPVLVIYYDTDRPSGIPARFSGSNSGNTATLTISRVEAGDEADYYCQVWDSSSDQRVFGGGTELTVL
binding result: binds
